# Tested on: Escherichia coli TOP10;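 further: peptides expressed intracellularly from a pBAD plasmid library in pooled LB shake-flask culture, induced with 0.3% L-arabinose, DNA abundance read by NGS, three biological replicates, DESeq2 with apeglm shrinkage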
# ASSAY_DETAILS: shrunken log2 fold change of peptide-encoding DNA abundance (4.5 h post-induction vs induction); higher = less antimicrobial activity (less host growth inhibition)
# REPORTED_CONDITIONS: time post-induction: 4.5 h; library: site-saturation at positions 5, 18, 19, 20
Lab note: compare shrunken log2 fold change against 0.03. Equal or greater, write fulfilled. Smaller, write not fulfilled.

Please review the entries below; each comes with its answer.
[
  {
    "POLYMER_SEQUENCE": "RRIRWRPPRLPRPRPRPQEIPRP",
    "TESTED_TARGET": "Escherichia coli TOP10",
    "CLASS": "not fulfilled"
  },
  {
    "POLYMER_SEQUENCE": "RRIRDRPPRLPRPRPRPVWLPRP",
    "TESTED_TARGET": "Escherichia coli TOP10",
    "CLASS": "fulfilled"
  }
]

Q: Is shrunken log2 fold change at least 0.03? Consider RRIRVRPPRLPRPRPRPPMGPRP
Ans: fulfilled

Q: Determine whether this sequence has shrunken log2 fold change no lower than 0.03: RRIRQRPPRLPRPRPRPAQHPRP
Ans: fulfilled
